All values here come from PubChem BioAssay (NCATS).

Molecular target: Rap guanine nucleotide exchange factor 4 (Homo sapiens)
Test: Confirmatory qHTS for antagonist of cAMP-regulated guanine nucleotide exchange factor 4 (EPAC2) (AID 1645885); further: nearly all actives have a fitted effect of over 25% in size
Conditions: EPAC2 Rap1B-BODIPY-GDP exchange fluorescence, biochemical; series mostly up to 12.7 µM
Inconclusive results are not listed. Calls of active or inactive are those of the source. The call rests on the fitted dose curve; in most records, active means well fitted inhibition curve with a large enough effect; inconclusive means small, poorly fitted or top-dose-only effect; inactive means no such curve, though single readings can be large or run the other way.
Select the matching outcome among active, inactive

// below: answered compounds
# COMPOUND, LABEL CLASS
data = [
    ("COC(=O)c1[nH]c2cc(C)ccc2c1NC(=O)CN1CCCc2ccccc21", "inactive"),
    ("CN(Cc1ccccc1N1CCCC1)C(=O)c1cc2cc(Cl)ccc2o1", "inactive"),
    ("COc1ccccc1NC(=O)COC(=O)c1ccc([N+](=O)[O-])s1", "inactive"),
    ("CC1(C)CC[C@]2(C(=O)n3ccnc3)CC[C@]3(C)[C@H](C(=O)C=C4[C@@]5(C)C=C(C#N)C(=O)C(C)(C)[C@@H]5CC[C@]43C)[C@@H]2C1", "inactive"),
]

Data request: Assay outcome for `CC/C(=C/c1ccccc1OC)c1cc(-c2ccccc2)cc2oc3ccccc3c12` : what was it?
Data returned: inactive

Data request: Assay outcome for CC(=O)C1=C(C)OC2(O)c3ccccc3C(=O)C12O (stereo unspecified) : what was it?
Data returned: inactive

Data request: Assay outcome for `COc1ccc(C(=O)Nc2cc(OC)c(Cl)cc2OC)cc1` : what was it?
Data returned: inactive

Data request: Assay outcome for `c1ccc(N2[C@@H]3c4ccccc4C[C@H]2c2ccccc23)cc1` : what was it?
Data returned: inactive

Data request: Assay outcome for CC(C)N1CCc2c(sc(NC(=O)c3ccc(S(=O)(=O)N4CCCCC4C)cc3)c2C(N)=O)C1 (stereo unspecified) : what was it?
Data returned: inactive

Data request: Assay outcome for `O=C1CNC(=O)c2c(nc3n2CCC3)N1` : what was it?
Data returned: inactive

Data request: Assay outcome for `N#CC1(NC(=O)COC(=O)c2nc(Cl)c(Cl)c(N)c2Cl)CCCCC1` : what was it?
Data returned: inactive

Data request: Assay outcome for `CCN1C/C(=C/c2ccc(N3CCOCC3)cc2)C(=O)/C(=C/c2ccc(N3CCOCC3)cc2)C1` : what was it?
Data returned: active

----------
System: CP305
Test: qHTS profiling for inhibitors of Plasmodium falciparum proliferation (AID 504749); further: nearly all actives have a fitted effect of over 60% in size
Conditions: P. falciparum in erythrocytes, SYBR Green DNA, 72 h; series mostly up to 12.8 µM
Results filed as inconclusive are left out. The source made the active and inactive calls. The call rests on the fitted dose curve; in most records, active means well fitted inhibition curve with a large enough effect; inconclusive means small, poorly fitted or top-dose-only effect; inactive means flat fitted curve, though single readings scatter.
Select the matching outcome among active, inactive

// below: answered compounds
# COMPOUND, LABEL CLASS
data = [
    ("CN[C@H]1[C@@H](O)[C@@H](NC)[C@@H]2O[C@@]3(O)C(=O)C[C@@H](C)O[C@H]3O[C@H]2[C@H]1O", "inactive"),
    ("C/C1=C2N=C(/C=C3N=C(/C(C)=C4\\[N-]C(C)(C5N=C1C(C)(CCC(=O)NCC(C)OP(=O)([O-])O[C@H]1C(O)C(n6cnc7cc(C)c(C)cc76)O[C@@H]1CO)C5CC(N)=O)C(C)(CC(N)=O)C4CCC(N)=O)C(C)(CC(N)=O)C\\3CCC(N)=O)C(C)(C)C/2CCC(N)=O.[CH2-]C1OC(n2cnc3c(N)ncnc32)C(O)C1O.[Co] (stereo partly specified)", "inactive"),
    ("OCC1OC([S-])[C@H](O)C(O)C1O.[Au+] (stereo partly specified)", "inactive"),
    ("CC(=O)[C@@]1(O)CC[C@H]2[C@H]3C[C@@H](C)C4=CC(=O)C=C[C@]4(C)[C@@]3(F)[C@@H](O)C[C@]21C", "inactive"),
    ("COC1C=CO[C@@]2(C)Oc3c(C)c(O)c4c(O)c(c(C=NN5CCN(C)CC5)c(O)c4c3C2=O)NC(=O)/C(C)=C\\C=CC(C)C(O)[C@@H](C)C(O)C(C)[C@H](OC(C)=O)C1C (stereo partly specified)", "active"),
]

Kindly review the next compound as well.
Data request: Assay outcome for `Cc1ncc([N+](=O)[O-])n1C[C@H](O)CCl` : what was it?
Data returned: inactive

----------
Biological target: Rap guanine nucleotide exchange factor 3 (Homo sapiens)
Assay: Counterscreen qHTS for antagonist of cAMP-regulated guanine nucleotide exchange factor 3 (EPAC1) (AID 1645888);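 further: fluorescence loss as bound BODIPY-GDP is released from Rap1B; % of control where 0% means no effect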
Settings: Rap1B-BODIPY-GDP nucleotide exchange, fluorescence; series mostly up to 154 µM
Results filed as inconclusive are left out. Activity calls are given as the source filed them. The call rests on the fitted dose curve; in most records, active means well fitted inhibition curve with a large enough effect; inconclusive means small, poorly fitted or top-dose-only effect; inactive means no such curve, though single readings can be large or run the other way.
REPORTED METRIC: activity change, negative = inhibition

# MOLECULE, REPORTED METRIC, EXPERIMENTAL RESULT
data = [
    ("CC(=O)N(C(C)=O)N1C(=O)c2cccc3c(N4CCOCC4)ccc(c23)C1=O", "activity change, negative = inhibition", "16.3% [at 30.8 µM] (inactive)"),
    ("CCCc1cc(=O)[nH]c(SCC(=O)Nc2sc3c(c2C#N)CCC(C)C3)n1 (centres undefined)", "activity change, negative = inhibition", "-6.17% [at 30.8 µM] (inactive)"),
    ("Cc1cc(C)cc(-c2nnc(SCc3ccc(C(=O)O)cc3)o2)c1", "activity change, negative = inhibition", "-19.9% [at 30.8 µM] (inactive)"),
    ("COc1ccc(S(=O)(=O)N2CCC[C@H]2C(=O)N2CCC[C@H]2C(=O)N[C@@H](C)c2ccccc2)cc1C", "activity change, negative = inhibition", "6.49% [at 30.8 µM] (inactive)"),
]

Data request: Identify the measured activity change, negative = inhibition of CC1(C(=O)NS(=O)(=O)c2cccc(F)c2)CCN1C(=O)C1(c2ccc(Cl)cc2)CCC1 (centres undefined) for Rap guanine nucleotide exchange factor 3 (Homo sapiens).
Data returned: inactive

Data request: Identify the measured activity change, negative = inhibition of `Cn1c(N)c(C(=O)COC(=O)COc2ccccc2C#N)c(=O)n(C)c1=O` for Rap guanine nucleotide exchange factor 3 (Homo sapiens).
Data returned: 3.67% [at 30.8 µM] (inactive)

Data request: Identify the measured activity change, negative = inhibition of `Nc1ncnc2c1ncn2[C@@H]1O[C@H](C(=O)N[C@H]2c3ccccc3C[C@H]2OC=O)[C@@H](O)[C@H]1O` for Rap guanine nucleotide exchange factor 3 (Homo sapiens).
Data returned: inactive

Data request: Identify the measured activity change, negative = inhibition of COc1cccc(C(NC(C)=O)c2nc(-c3csc4ccccc34)cs2)c1 (centres undefined) for Rap guanine nucleotide exchange factor 3 (Homo sapiens).
Data returned: -22.7% [at 30.8 µM] (inactive)

Data request: Identify the measured activity change, negative = inhibition of `CCOc1c(S(=O)(=O)N2CCCC2)ccc(Cl)c1Cl` for Rap guanine nucleotide exchange factor 3 (Homo sapiens).
Data returned: inactive

----------
Assay: qHTS profiling for inhibitors of Plasmodium falciparum proliferation (AID 504749); further: nearly all actives have a fitted effect of over 60% in size; further: potency means the concentration at half of the fitted maximal effect
Conditions: P. falciparum in erythrocytes, SYBR Green DNA, 72 h; parasite line A
Results filed as inconclusive are left out. Activity calls are given as the source filed them. The call rests on the fitted dose curve; in most records, active means well fitted inhibition curve with a large enough effect; inconclusive means small, poorly fitted or top-dose-only effect; inactive means flat fitted curve, though single readings scatter.
REPORTED METRIC: Potency

Look over these answered cases.
# COMPOUND, REPORTED METRIC, EXPERIMENTAL RESULT
rows = [
    ("COC1C=CO[C@@]2(C)Oc3c(C)c(O)c4c(O)c(c5c(nc6cc(C)ccn65)c4c3C2=O)NC(=O)/C(C)=C\\C=CC(C)C(O)[C@@H](C)C(O)C(C)[C@@H](OC(C)=O)C1C (stereo partly drawn)", "Potency", "14.1 µM (active)"),
    ("O=C(N/N=C\\c1ccc([N+](=O)[O-])o1)c1ccc(O)cc1", "Potency", "1.41 µM (active)"),
]

From here, focus on the item given below.
Data request: Potency for COc1cc(C2c3cc4c(cc3C(O[C@@H]3OC5COC(c6cccs6)OC5C(O)C3O)C3COC(=O)C23)OCO4)cc(OC)c1O (stereo partly drawn) ?
Data returned: 1.12 µM (active)

----------
Target: Cytochrome P450 3A4 (Homo sapiens)
Test: qHTS Assay for Inhibitors and Substrates of Cytochrome P450 3A4 (AID 884); further: nearly all actives have a fitted effect of over 50% in size
Settings: recombinant CYP3A4, Luciferin-PPXE luminescence; series mostly up to 57.1 µM
Results filed as inconclusive are left out. The source made the active and inactive calls. The call rests on the fitted dose curve; in most records, active means well fitted inhibition curve with a large enough effect; inconclusive means small, poorly fitted or top-dose-only effect; inactive means no such curve, though single readings can be large or run the other way.
Select the matching outcome among active, inactive

// below: answered compounds
# COMPOUND, LABEL CLASS
records = [
    ("CC(C)(O)C1CC[C@@]2(C)C3CCC4[C@@]5(C)CCCC(C)(C)C5C(O)C[C@]4(C)[C@]3(C)CC[C@@H]12 (stereo not given in full)", "inactive"),
    ("CC1(C)CC2C1CC[C@]1(C)CCC3C(C(=O)O)CC(=O)O[C@]32C1 (stereo not given in full)", "inactive"),
    ("COC1[C@H](OC(N)=O)C(O)[C@H](Oc2ccc3c(O)c(NC(=O)c4ccc(O)c(CC=C(C)C)c4)c(=O)oc3c2C)OC1(C)C (stereo not given in full)", "inactive"),
    ("CC(=O)NC(CC(=O)O)C(=O)O (stereo not given)", "inactive"),
    ("CS(=O)(=O)c1ccc(C(O)C(CO)NC(=O)C(Cl)Cl)cc1 (stereo not given)", "inactive"),
    ("C[C@@]12CCC(=O)C=C1C=CC1C2CC[C@]2(C)C1CC[C@@]21CCC(=O)O1 (stereo not given in full)", "inactive"),
    ("CC(=O)NC(CCC(=O)O)C(=O)O (stereo not given)", "inactive"),
    ("COc1ccc2c(c1OC)OCC(c1ccc(OC)c(OC)c1OC)C2 (stereo not given)", "inactive"),
]

Data request: Assay outcome for COc1ccc(C(C)C(=O)c2ccc(O)cc2O)cc1 (stereo not given) : what was it?
Data returned: active

Data request: Assay outcome for COC(=O)C1=CO[C@@H](O[C@H]2OC(CO)C(O)C(O)C2O)C2C1CC(O)C2C (stereo not given in full) : what was it?
Data returned: inactive
